# PROTOCOL DESCRIPTION: Volume of distribution at steady state in nu/nu mouse at 10 mg/kg, iv
# Type: ADME, organism-based
# Design: dose 10 mg/kg, route intravenous
# CONDITIONS: in vivo, read-out: Vdss
READOUT LABEL: Vd (L/kg)
Lab book: enter the figure in L/kg, no units written.

**Query** Fill in the blank: the reported Vd of `CC(C)CC(=O)Nc1[nH]nc2c1CN(C(=O)C1CCN(C)CC1)C2(C)C` is ____.
**Result** 1.36

* * *

# PROTOCOL DESCRIPTION: Cmax in nu/nu mouse at 10 mg/kg, iv
# Format: ADME, organism-based
# Set-up: dose 10 mg/kg, route intravenous
# CONDITIONS: in vivo
READOUT LABEL: Cmax (µM)
Lab book: enter the figure in µM, no units written.

**Query** Fill in the blank: the reported Cmax of `CC(C)CC(=O)Nc1[nH]nc2c1CN(C(=O)C1CCN(C)CC1)C2(C)C` is ____.
**Result** 36.5

* * *

# System: MCF7
# PROTOCOL DESCRIPTION: Antiproliferative activity against human MCF7 cells after 72 hrs by SRB assay
# Assay type: functional, cell-based
# CONDITIONS: MCF7, 72 h
READOUT LABEL: IC50

**Query** Fill in the blank: the reported IC50 of CC(C)CC(=O)Nc1n[nH]c2c1CN(C(=O)C1CCN(C)CC1)C2(C)C [PHA-793887] is ____.
**Result** 1280 nM

* * *

# MEASURED TARGET: Cell division cycle 7-related protein kinase (Homo sapiens)
# Sequence (O00311 whole entry): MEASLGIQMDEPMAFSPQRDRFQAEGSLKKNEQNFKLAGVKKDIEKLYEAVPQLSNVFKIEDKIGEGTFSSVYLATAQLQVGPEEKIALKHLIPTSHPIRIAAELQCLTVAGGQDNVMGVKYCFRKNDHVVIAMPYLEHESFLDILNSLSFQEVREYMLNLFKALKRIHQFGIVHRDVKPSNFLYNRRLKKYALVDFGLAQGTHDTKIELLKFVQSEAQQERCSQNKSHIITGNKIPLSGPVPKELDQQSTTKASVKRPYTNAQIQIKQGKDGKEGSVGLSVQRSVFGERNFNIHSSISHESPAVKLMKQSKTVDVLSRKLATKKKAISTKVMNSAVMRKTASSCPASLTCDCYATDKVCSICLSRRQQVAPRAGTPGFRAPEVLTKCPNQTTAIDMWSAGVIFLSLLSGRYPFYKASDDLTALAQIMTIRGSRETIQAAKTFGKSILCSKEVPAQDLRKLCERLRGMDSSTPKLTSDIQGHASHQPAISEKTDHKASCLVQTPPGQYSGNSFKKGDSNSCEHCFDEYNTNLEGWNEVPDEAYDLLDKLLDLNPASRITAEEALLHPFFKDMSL
pIC50: −log10 of the molar value.
READOUT LABEL: pIC50

**Query** Fill in the blank: the reported pIC50 of CC(C)CC(=O)Nc1[nH]nc2c1CN(C(=O)C1CCN(C)CC1)C2(C)C [PHA-793887] is ____.
**Result** < 5.00

* * *

# MEASURED TARGET: Tyrosine-protein kinase JAK2 (Homo sapiens)
# Sequence (O60674 whole entry): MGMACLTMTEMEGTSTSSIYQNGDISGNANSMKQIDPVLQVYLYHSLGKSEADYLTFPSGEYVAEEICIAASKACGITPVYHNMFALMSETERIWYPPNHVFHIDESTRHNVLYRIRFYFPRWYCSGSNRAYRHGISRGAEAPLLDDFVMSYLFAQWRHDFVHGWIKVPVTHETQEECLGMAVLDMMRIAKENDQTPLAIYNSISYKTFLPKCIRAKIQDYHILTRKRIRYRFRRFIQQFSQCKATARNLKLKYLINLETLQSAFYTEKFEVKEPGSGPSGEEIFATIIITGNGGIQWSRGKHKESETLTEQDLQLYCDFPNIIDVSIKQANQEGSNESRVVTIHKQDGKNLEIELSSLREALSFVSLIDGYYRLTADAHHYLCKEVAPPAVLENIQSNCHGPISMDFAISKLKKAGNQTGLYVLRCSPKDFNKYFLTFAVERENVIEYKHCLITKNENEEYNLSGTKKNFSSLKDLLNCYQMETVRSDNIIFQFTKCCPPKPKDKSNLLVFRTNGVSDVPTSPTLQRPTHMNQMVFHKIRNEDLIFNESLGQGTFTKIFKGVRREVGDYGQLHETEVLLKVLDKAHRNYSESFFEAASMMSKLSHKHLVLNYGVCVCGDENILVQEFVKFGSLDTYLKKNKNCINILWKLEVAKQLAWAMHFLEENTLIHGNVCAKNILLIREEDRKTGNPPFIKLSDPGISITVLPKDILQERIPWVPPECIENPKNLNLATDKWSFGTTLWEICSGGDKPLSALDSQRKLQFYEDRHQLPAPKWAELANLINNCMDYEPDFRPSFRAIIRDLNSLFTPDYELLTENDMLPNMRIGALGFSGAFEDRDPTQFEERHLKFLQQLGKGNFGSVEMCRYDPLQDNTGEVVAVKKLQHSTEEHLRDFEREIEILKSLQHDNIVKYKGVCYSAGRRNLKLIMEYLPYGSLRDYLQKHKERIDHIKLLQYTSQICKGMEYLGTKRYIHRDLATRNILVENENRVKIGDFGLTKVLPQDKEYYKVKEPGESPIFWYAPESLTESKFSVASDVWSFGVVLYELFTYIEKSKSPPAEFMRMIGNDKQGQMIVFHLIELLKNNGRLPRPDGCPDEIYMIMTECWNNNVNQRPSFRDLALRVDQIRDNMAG
READOUT LABEL: IC50

**Query** Fill in the blank: the reported IC50 of `CC(C)CC(=O)Nc1[nH]nc2c1CN(C(=O)C1CCN(C)CC1)C2(C)C` is ____.
**Result** > 10 µM

* * *

# MEASURED TARGET: UniProt Q96GD4
# Sequence (Q96GD4 whole entry): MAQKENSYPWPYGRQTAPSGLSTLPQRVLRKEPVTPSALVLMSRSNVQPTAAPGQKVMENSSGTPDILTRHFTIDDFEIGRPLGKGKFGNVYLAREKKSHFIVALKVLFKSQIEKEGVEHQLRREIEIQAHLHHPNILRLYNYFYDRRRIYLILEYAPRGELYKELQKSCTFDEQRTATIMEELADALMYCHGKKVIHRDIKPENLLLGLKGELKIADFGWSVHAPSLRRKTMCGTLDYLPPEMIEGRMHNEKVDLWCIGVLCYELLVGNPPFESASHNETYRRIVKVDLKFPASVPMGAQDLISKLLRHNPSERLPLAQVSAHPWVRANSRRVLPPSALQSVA
READOUT LABEL: IC50

**Query** Fill in the blank: the reported IC50 of CC(C)CC(=O)Nc1[nH]nc2c1CN(C(=O)C1CCN(C)CC1)C2(C)C [PHA-793887] is ____.
**Result** > 10 µM

* * *

# MEASURED TARGET: Cyclin-dependent kinase 7/ cyclin H (Homo sapiens, UniProt P50613)
# Sequence (P51946 whole entry): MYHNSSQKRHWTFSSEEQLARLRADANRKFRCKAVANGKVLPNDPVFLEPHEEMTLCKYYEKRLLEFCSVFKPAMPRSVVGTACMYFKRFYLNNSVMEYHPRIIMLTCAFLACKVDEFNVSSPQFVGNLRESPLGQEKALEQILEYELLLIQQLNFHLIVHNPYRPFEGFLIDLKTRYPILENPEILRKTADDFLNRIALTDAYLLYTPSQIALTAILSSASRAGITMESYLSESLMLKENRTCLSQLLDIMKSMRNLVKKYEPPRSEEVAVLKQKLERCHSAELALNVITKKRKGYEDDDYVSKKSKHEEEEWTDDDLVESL
# Sequence (P50613 whole entry): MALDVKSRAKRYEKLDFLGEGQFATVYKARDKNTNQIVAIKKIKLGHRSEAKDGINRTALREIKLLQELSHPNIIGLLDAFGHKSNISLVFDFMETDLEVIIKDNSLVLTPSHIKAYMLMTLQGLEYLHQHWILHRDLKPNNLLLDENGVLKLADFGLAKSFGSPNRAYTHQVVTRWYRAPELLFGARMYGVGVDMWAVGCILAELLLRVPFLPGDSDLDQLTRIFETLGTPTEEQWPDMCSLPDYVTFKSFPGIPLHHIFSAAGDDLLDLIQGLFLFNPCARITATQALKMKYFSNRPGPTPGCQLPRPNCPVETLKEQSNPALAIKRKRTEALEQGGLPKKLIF
# PROTOCOL DESCRIPTION: Inhibition of CDK7/cyclin H by scintillation proximity assay
READOUT LABEL: pIC50
# pIC50: negative log10 of molar concentration; output just the value

**Query** Fill in the blank: the reported pIC50 of `CC(C)CC(=O)Nc1[nH]nc2c1CN(C(=O)C1CCN(C)CC1)C2(C)C` is ____.
**Result** 8.00

* * *

# MEASURED TARGET: Serine/threonine-protein kinase Nek6 (Homo sapiens)
# Sequence (Q9HC98 whole entry): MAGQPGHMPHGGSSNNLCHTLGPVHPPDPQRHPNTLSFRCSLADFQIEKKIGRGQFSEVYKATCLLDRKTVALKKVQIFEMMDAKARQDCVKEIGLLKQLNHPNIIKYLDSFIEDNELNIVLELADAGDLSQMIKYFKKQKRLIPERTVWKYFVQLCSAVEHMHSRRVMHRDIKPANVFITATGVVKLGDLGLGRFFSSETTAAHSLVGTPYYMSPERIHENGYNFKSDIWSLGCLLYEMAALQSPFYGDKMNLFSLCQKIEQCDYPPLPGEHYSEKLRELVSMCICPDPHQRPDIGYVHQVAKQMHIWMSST
# PROTOCOL DESCRIPTION: Inhibition of NEK6 by scintillation proximity assay
pIC50: −log10 of the molar value.
READOUT LABEL: pIC50

**Query** Fill in the blank: the reported pIC50 of `CC(C)(C)C(=O)N1Cc2c(NC(=O)c3cc(F)cc(F)c3)n[nH]c2C1(C)C` is ____.
**Result** < 5.00

Data origin, for the record: ChEMBL document CHEMBL1157586
